- PROCEDURE_SUMMARY: Toxicity liver stage against HepG2, at 10uM
- Format: cell-based
- Set-up: test concentration 10 uM, cell line HepG2-A16-CD81EGFP
- PARTICULARS: human, HepG2-A16-CD81EGFP cells; read-out: INHIBITION
PARAMETER_MEASURED: cytotoxicity at 10 µM (%)
Give the value in % but do not write % after it.

>>> measured_value("CCN(Cc1nnnn1C1CC1)c1cc(C)ccc1C")
9.21
>>> measured_value("CCCn1ncc(C(=O)N(C)Cc2n[nH]c3c2CCC3)c1C")
0.213
>>> measured_value("O=C(NC[C@H]1OC[C@@H]2CCN(C3CCOCC3)C[C@@H]21)c1ccncc1")
4.98

Record c1cc(-c2cncnc2)cc(-c2ccn(CC3CCNC3)n2)c1 (centres undefined) , field cytotoxicity at 10 µM: 5.54

Quick note, cytotoxicity at 10 µM for CC(c1cccnc1)N(C)Cc1cc(O)c2cc(F)ccc2n1 (centres undefined) landed at 10.8

The recorded cytotoxicity at 10 µM for CCCc1nccn1-c1ccncc1 is 17.3

// sample Cc1ccc(CN(C)C(=O)CN2CC(n3cccn3)C2)o1 , its cytotoxicity at 10 µM was -0.0582
